tested on: MCF7; test: NCI tumour cell line growth inhibition, 48 h
Active and inactive are the calls of the source. No stated cut-off is given here; in the data, active = GI50 up to about 1.1 µM and inactive = higher.
Respond using exactly one of the listed classes: Y = active, N = inactive

>  <compound>
Cc1ccc(C(=O)Nc2ccc(CP(=O)(O)O)cc2)cc1NC(=O)Nc1cc(C(=O)Nc2ccc(CP(=O)(O)O)cc2)ccc1C

>  <label class>
N

$$$$
>  <compound>
CC1=NN(C(=O)CC(=O)Nc2ccccc2Cl)C(=O)C1/N=N/c1ccc(C(=O)O)cc1 (stereo unspecified)

>  <label class>
N

$$$$
>  <compound>
N#CC(NNC(=O)Cc1ccccc1)c1c(O)ccc2ccccc12 (stereo unspecified)

>  <label class>
N

$$$$
>  <compound>
Cc1cc(/N=C/c2c(CO)cnc(C)c2O)c(/N=C/c2c(CO)cnc(C)c2O)cc1C

>  <label class>
N

$$$$
>  <compound>
Nc1nc(N)c(N=Nc2ccc([As](=O)(O)O)c(O)c2)c(N)n1

>  <label class>
N

$$$$

[Q] // outcome(item) with item = "O=[N+]([O-])c1cccc2nc3ccccc3c(NCCN(CCO)CCO)c12"
[A] Y

[Q] In this assay, the call recorded for "COC(=O)CCc1ccc2c(c1)CC1(Cc3ccccc3C1)C2" was what?
[A] N

###

system: HCC 2998; test: NCI tumour cell line growth inhibition, 48 h
Calls of active or inactive are those of the source. Rule as the data show it: active = GI50 up to about 1.1 µM and inactive = higher.
GI50 values for the compounds below.

Field: example entries. Status: answers known.
>  <compound>
CC1CC(c2ccc([N+](=O)[O-])cc2)=Nc2ccccc2[S+]1[O-] (stereo not drawn)

>  <measured target>
HCC 2998

>  <endpoint result>
21.8 µM (inactive)

$$$$
>  <compound>
CC1=CN(c2ccccc2)S2=C1c1sc3c(c1N2c1ccc(Br)cc1)CCCC3 (stereo not drawn)

>  <measured target>
HCC 2998

>  <endpoint result>
> 100 µM (inactive)

$$$$
>  <compound>
Cc1ccc2c(c1)C(C1Cc3c(C)cccc3C1=O)OC2=O (stereo not drawn)

>  <measured target>
HCC 2998

>  <endpoint result>
> 100 µM (inactive)

$$$$
>  <compound>
CC1=NN(C(=O)CC(=O)Nc2ccccc2Cl)C(=O)C1/N=N/c1ccc(C(=O)O)cc1 (stereo not drawn)

>  <measured target>
HCC 2998

>  <endpoint result>
> 100 µM (inactive)

$$$$
>  <compound>
C#CCCCCC#Cc1ccccc1C(=O)OC

>  <measured target>
HCC 2998

>  <endpoint result>
> 100 µM (inactive)

$$$$

[Q] Which GI50 is reported for this compound? "CN(/N=C/C=N/N(C)C1=NCCCCN1)C1=NCCCCN1"
[A] > 100 µM (inactive)

[Q] // query GI50 value for entry CC(C)[Si]1(C(C)C)OCC2OC(n3cnc4c(N)ncnc43)C(N)C2O[Si](C(C)C)(C(C)C)O1 (stereo not drawn)
[A] 4.79 µM (inactive)

[Q] So what does the record say about GI50 for "CN(C)CCCNC(=O)c1c(O)c2ccccc2[nH]c1=O" ?
[A] > 100 µM (inactive)

###

tested on: SR; test: NCI tumour cell line growth inhibition, 48 h
The source made the active and inactive calls. No stated cut-off is given here; in the data, active = GI50 up to about 1.1 µM and inactive = higher.
Write down the outcome that applies. Available outcomes: active, inactive

Take a look at these entries with their results.
>  <molecule>
CC(C)(Br)C(=O)N1CCN(C(c2ccccc2)c2ccccc2)CC1

>  <measured target>
SR

>  <label class>
inactive

$$$$
>  <molecule>
CC(=O)SC(C[N+](=O)[O-])c1ccc2c(c1)OCO2 (configuration not stated)

>  <measured target>
SR

>  <label class>
inactive

$$$$
>  <molecule>
Nc1cc2c3c(cccc3c1)C(=O)N(c1ccc(OCCN3CCCCC3)cc1)C2=O

>  <measured target>
SR

>  <label class>
inactive

$$$$

[Q] What did the test return for "CC(=O)Oc1ccc2c(c1)c1c(=O)oc(C)nc1n2Cc1ccccc1" ?
[A] inactive

[Q] Call for entry COc1cc2c3c4c1OCc1c5c(cc(c1-4)CC3[N+](C)(C)CC2)OCO5 (configuration not stated) :
[A] inactive

###

test system: SF-268; experiment: NCI tumour cell line growth inhibition, 48 h
The source made the active and inactive calls. Cut-off read from the data, not from the text of the source: active = GI50 up to about 1.1 µM and inactive = higher.
observation type: GI50

Use the examples below as a reference point.
>  <cpd smiles>
O=C1Nc2ccccc2/C1=N/Nc1nc(-c2ccc(Br)cc2)cs1

>  <GI50>
20 µM (inactive)

$$$$
>  <cpd smiles>
N#Cc1nc(C2CCC2)oc1N

>  <GI50>
> 100 µM (inactive)

$$$$
>  <cpd smiles>
CC(C)(C)CC(N)=O

>  <GI50>
> 100 µM (inactive)

$$$$
>  <cpd smiles>
COC(=O)[C@@]12CCCC(=O)[C@@H]1[C@H]1CCCC[C@H]12

>  <GI50>
> 100 µM (inactive)

$$$$
>  <cpd smiles>
N#C/C(=C\n1ccc(=O)[nH]c1=S)C(N)=O

>  <GI50>
> 100 µM (inactive)

$$$$

[Q] Which GI50 is listed for "Cn1c(CBr)nc2c1C(=O)c1nc(CBr)[nH]c(=O)c1C2=O" ?
[A] > 100 µM (inactive)

###

The entries below are paired with their reported GI50.
test system: Malme-3M; test: NCI tumour cell line growth inhibition, 48 h
Active and inactive are the calls of the source. Cut-off read from the data, not from the text of the source: active = GI50 up to about 1.1 µM and inactive = higher.

>  <molecule>
CC1(C)C(=O)OC(n2cc(F)c(=O)[nH]c2=O)C1=O (stereo unspecified)

>  <measured target>
Malme-3M

>  <GI50>
> 100 µM (inactive)

$$$$

[Q] // query GI50 value for entry CC1=NN(C(=O)CC(=O)Nc2ccccc2Cl)C(=O)C1/N=N/c1ccc(C(=O)O)cc1 (stereo unspecified)
[A] > 100 µM (inactive)

[Q] Tell me the measured GI50 of "COc1ccc(/C=C/C(=O)/C=C/c2ccc(OC)cc2OC)c(OC)c1" , please.
[A] 4.19 µM (inactive)

[Q] Would you kindly share the measured GI50 for N#CCCSC(=S)C1CCCC1=N (stereo unspecified) ?
[A] > 100 µM (inactive)

[Q] # input molecule: "CSc1ccsc1-c1sc(-c2cc(SC)c(-c3sc(-c4cc(SC)c(-c5sccc5SC)s4)cc3SC)s2)cc1SC" ; wanted: its GI50
[A] 29.4 µM (inactive)

[Q] I am curious: what GI50 value has been reported for CC1(C)CCC[C@@]2(C)C1CC[C@H]1CC(O)C3(C)CCC12C3 (stereo partly specified) ?
[A] 16.9 µM (inactive)

[Q] Consider the molecule shown here: "Oc1ccccc1/C=N/c1ccc(Oc2ccc(Cl)cc2)c(Cl)c1" What is its recorded GI50?
[A] 19.5 µM (inactive)

[Q] Field request: GI50 | item: CC(=O)OCC12CCC3C4(C)CCCC(C)(C)C4CCC3(C)C1CC(C1=CC(=O)OC1O)O2 (stereo unspecified)
[A] 1.05 µM (active)

[Q] Which GI50 value is on record for c1ccc2c(c1)CCN1CCc3c([nH]c4ccccc34)C21 (stereo unspecified) ?
[A] 18.1 µM (inactive)

[Q] Which measured GI50 value corresponds to CSC1NC=Nc2c1sc(=S)n2-c1ccccc1 (stereo unspecified) ?
[A] > 100 µM (inactive)

[Q] Tell me the measured GI50 of "NC(=O)c1ncn2c1CNC(=O)C2" , please.
[A] > 100 µM (inactive)

[Q] Can you look up the measured GI50 of "CCCCCCCCCCCCNC1(C)CNCCCNCCNCCCNC1" for me?
[A] 2.01 µM (inactive)

[Q] Which GI50 reading was recorded for the molecule Cc1ccc2c(c1)C(C1Cc3c(C)cccc3C1=O)OC2=O (stereo unspecified) ?
[A] > 100 µM (inactive)

[Q] I have this molecule here, C#CCN(N=O)C(=O)NCCCC(NC(C)=O)C(=O)NCc1ccccc1 (stereo unspecified) , and I need its recorded GI50.
[A] > 100 µM (inactive)

###

Overview of recorded GI50 for various molecules
tested on: M19-MEL; experiment: NCI tumour cell line growth inhibition, 48 h
The source made the active and inactive calls. Rule as the data show it: active = GI50 up to about 1.1 µM and inactive = higher.

>  <molecule>
CO/N=C/c1cc(OC)c(OC)c(OC)c1

>  <measured target>
M19-MEL

>  <GI50>
> 100 µM (inactive)

$$$$
>  <molecule>
N#C/C(=C1\SC(/N=N/c2ccc(Cl)cc2)C(=O)N1c1ccccc1)c1nc2ccccc2[nH]1 (stereo not given)

>  <measured target>
M19-MEL

>  <GI50>
28.1 µM (inactive)

$$$$
>  <molecule>
O=C1NCCS(=O)(=O)N[C@@H](CC2=CC=CCC2)C(=O)N2CCCC12 (stereo not given in full)

>  <measured target>
M19-MEL

>  <GI50>
> 100 µM (inactive)

$$$$
>  <molecule>
OCC[N+]12CCCN1CCC2

>  <measured target>
M19-MEL

>  <GI50>
> 100 µM (inactive)

$$$$

[Q] # GI50 lookup, item "Nc1nc(Cl)cc(NCCCNc2cc(Cl)nc(N)n2)n1"
[A] > 100 µM (inactive)

[Q] Entry CN1c2c(O)nc(N)nc2NCC1CCNc1ccc(C(=O)NC(CCC(=O)O)C(=O)O)cc1 (stereo not given) : reported GI50 = ?
[A] 222 µM (inactive)

[Q] GI50 for "CCOC(=O)c1[nH]c(COC(C)=O)c2c1CCCCCCCCCC2" ?
[A] > 100 µM (inactive)

[Q] Form field: reported GI50 of CC1OC(n2cc(F)c(=O)[nH]c2=O)CCC1=O (stereo not given)
[A] > 100 µM (inactive)

[Q] Could you share which GI50 value was measured for CC(C)=CCC/C(C)=C/CC/C(C)=C/CCC1(C)CCC([C@H](C)C(=O)O)OO1.CC1=C(CC/C(C)=C/CCC2(C)CCC([C@H](C)C(=O)O)OO2)C(C)(C)CCC1 (stereo not given in full) ?
[A] > 100 µM (inactive)

[Q] If you can, please state the reported GI50 value of "CC(=O)Nc1ccc(-c2nnc(SCC(=O)Nc3ccc(Cl)cc3Cl)o2)cc1" .
[A] 51.9 µM (inactive)
